assay-remarks: Quantitative highthroughput screen to assess conditional lethalithy of P12 Ichikawa cells grown in RPMI1640 with dialyzed fetal bovine serum (RPMI+ds) (AID 1963880); also: nearly all actives have a fitted effect of over 35% in size;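 as to viability: 100% = DMSO wells and 0% = empty wells on each plate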
conditions: ATP luminescence, 48 h; P12-Ichikawa viability; series mostly up to 45.8 µM
Records with an inconclusive call do not appear. The source made the active and inactive calls. Calls follow the shape of the dose curve; as a rule, active = well fitted cell-killing curve with a large enough effect; inconclusive = small, poorly fitted or top-dose-only effect; inactive = flat fitted curve, though single readings scatter.
Outcome field: choose from 1 (active), 0 (inactive)

input: State the result this test recorded for COc1ccc2nc3cc(Cl)ccc3c(Nc3cc(CN4CCCC4)c(O)c(CN4CCCC4)c3)c2n1 .
output: 0

input: State the result this test recorded for C[C@H]1Oc2cc(cnc2N)-c2c(nn(C)c2C#N)CN(C)C(=O)c2ccc(F)cc21 .
output: 0

input: State the result this test recorded for c1cnc2cc3c(cc2n1)C1CNCC3C1 .
output: 0

input: State the result this test recorded for CN(C)c1cc(NC(=O)CNC(C)(C)C)c(O)c2c1C[C@@H]1C[C@H]3[C@H](N(C)C)C(=O)C(C(N)=O)=C(O)[C@@]3(O)C(=O)C1=C2O .
output: 0

input: State the result this test recorded for O=C1C(c2c(O)[nH]c3ccccc23)=Nc2ccccc21 .
output: 0

input: State the result this test recorded for COC[C@H](NC(=O)c1cnc(C)s1)C(=O)N[C@@H](COC)C(=O)N[C@@H](Cc1ccccc1)C(=O)[C@@]1(C)CO1 .
output: 1

input: State the result this test recorded for C[C@H]1COC2=C1C(=O)C(=O)c1c2ccc2c1CCCC2(C)C .
output: 0

input: State the result this test recorded for c1ccc([C@H]2CN3CCSC3=N2)cc1 .
output: 0

input: State the result this test recorded for NNCCc1ccccc1 .
output: 0

input: State the result this test recorded for O=C(Nc1cccnn1)N1CCC(=Cc2cccc(Oc3ccc(C(F)(F)F)cn3)c2)CC1 .
output: 0

input: State the result this test recorded for CCN1CCCC1CNC(=O)c1cc(S(N)(=O)=O)ccc1OC (stereo unspecified) .
output: 0

input: State the result this test recorded for Cc1cc(C(=O)NOCCO)c(Nc2ccc(I)cc2F)n(C)c1=O .
output: 0

input: State the result this test recorded for Cc1nc(N)ncc1-c1nc(N2CCOCC2)c2sc(C(C)(C)O)cc2n1 .
output: 1

input: State the result this test recorded for Cc1noc(NS(=O)(=O)c2ccc(N)cc2)c1C .
output: 0

input: State the result this test recorded for CC(C)[C@H](C(=O)Nc1ccc(C(=O)NO)cc1)c1ccccc1 .
output: 1

input: State the result this test recorded for COc1cc(C(C)C)c(Oc2cnc(NC(CO)CO)nc2N)cc1I .
output: 0

input: State the result this test recorded for N#CNC(=NCCCCCCOc1ccc(Cl)cc1)Nc1ccncc1 .
output: 1

input: State the result this test recorded for N[C@H]1CN(c2c(F)cc3c(=O)c(C(=O)O)cn(C4C[C@@H]4F)c3c2Cl)CC12CC2 (stereo partly specified) .
output: 0

input: State the result this test recorded for O=C(O)CCc1ccc(NCc2cccc(Oc3ccccc3)c2)cc1 .
output: 0

input: State the result this test recorded for CCCCC(C)(C)[C@H](O)C=C[C@H]1[C@H](O)CC(=O)[C@H]1CC=CCCCC(=O)O .
output: 1

input: State the result this test recorded for COc1ccc(C2(C#N)CCC(C(=O)O)CC2)cc1OC1CCCC1 (stereo unspecified) .
output: 0
